The reported measurements were obtained from paper PMC4336329.

molecular target: human ether-à-go-go-related gene (hERG) potassium channel (human, UniProt Q12809); assay: primary screen, population patch clamp on CHO cells stably expressing hERG; higher = less effect of the substance;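 also: peak tail current of the secondary pulse compared with the same well before compound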
Sequence (Q12809 whole entry, looked up): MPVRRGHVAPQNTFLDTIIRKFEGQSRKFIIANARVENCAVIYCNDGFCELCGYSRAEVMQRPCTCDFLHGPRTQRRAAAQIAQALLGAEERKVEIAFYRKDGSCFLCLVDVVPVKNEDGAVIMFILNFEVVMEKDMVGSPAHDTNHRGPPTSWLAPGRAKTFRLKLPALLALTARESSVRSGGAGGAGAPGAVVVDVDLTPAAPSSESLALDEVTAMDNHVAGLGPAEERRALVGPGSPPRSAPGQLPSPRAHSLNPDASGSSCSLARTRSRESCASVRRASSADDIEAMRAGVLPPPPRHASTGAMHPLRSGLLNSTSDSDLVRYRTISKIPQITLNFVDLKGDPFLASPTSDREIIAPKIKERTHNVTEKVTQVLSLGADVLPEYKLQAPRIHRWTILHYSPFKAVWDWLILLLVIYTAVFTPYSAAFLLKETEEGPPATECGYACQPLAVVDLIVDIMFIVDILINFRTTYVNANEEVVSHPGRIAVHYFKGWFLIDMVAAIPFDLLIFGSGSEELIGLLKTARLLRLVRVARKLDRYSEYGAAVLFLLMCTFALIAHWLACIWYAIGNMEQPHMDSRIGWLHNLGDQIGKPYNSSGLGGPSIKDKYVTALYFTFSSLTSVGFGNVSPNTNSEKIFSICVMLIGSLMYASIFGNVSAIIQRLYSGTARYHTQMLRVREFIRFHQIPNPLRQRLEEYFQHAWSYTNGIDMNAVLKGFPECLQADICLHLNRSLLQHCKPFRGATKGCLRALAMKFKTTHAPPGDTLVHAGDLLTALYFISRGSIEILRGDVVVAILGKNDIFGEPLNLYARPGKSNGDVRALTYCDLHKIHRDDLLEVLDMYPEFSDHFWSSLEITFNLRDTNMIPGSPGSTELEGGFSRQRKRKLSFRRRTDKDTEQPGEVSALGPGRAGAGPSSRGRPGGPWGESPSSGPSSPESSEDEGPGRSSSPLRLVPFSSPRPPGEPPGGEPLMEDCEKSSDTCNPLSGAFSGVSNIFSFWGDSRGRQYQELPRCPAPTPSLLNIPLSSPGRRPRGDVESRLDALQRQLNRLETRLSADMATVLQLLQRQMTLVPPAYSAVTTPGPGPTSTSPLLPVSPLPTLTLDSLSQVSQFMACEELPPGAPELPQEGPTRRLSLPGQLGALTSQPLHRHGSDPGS
Out of some 310,000 compounds screened, about 14,000 (4.5%) showed an effect of 50% or more. The effect is printed as a negative number. This excerpt belongs to a sample that is enriched for strong results.
Metric name: hERG current change (%, negative = inhibition) at 10uM (%)
Provide only the numeric value, understood in %.

In: Item CC(C)c1ccc2c(c1)C(N1CCN(C)CC1)Cc1cccnc1S2.O=C(O)/C=C\C(=O)O (stereo not drawn) has what recorded hERG current change (%, negative = inhibition) at 10uM?
Out: -50.6

In: hERG current change (%, negative = inhibition) at 10uM lookup needed for Cc1ccc(C(=O)c2nc(C(=O)NCCO)nc3ccccc23)cc1 , thanks.
Out: 25.8

In: Look up hERG current change (%, negative = inhibition) at 10uM for this compound: Cc1nc2c(o1)CCc1ccccc1C2N1CCN(C)CC1.O=C(O)/C=C/C(=O)O (stereo not drawn)
Out: -5.58

In: Suppose we examine the compound CN1CCN(C2=Cc3ccccc3Sc3cc(F)c(Cl)cc32)CC1.O=C(O)/C=C\C(=O)O ; what hERG current change (%, negative = inhibition) at 10uM value has been reported?
Out: -12.4

In: Sample CCCCCCN1C2=NCCN2c2ccccc21.Cl — what was its hERG current change (%, negative = inhibition) at 10uM?
Out: -74

In: Look up hERG current change (%, negative = inhibition) at 10uM for this compound: CC(C)c1ccc2c(c1)C(N1CCNCC1)Cc1ccc(F)cc1S2.O.O=C(O)/C=C\C(=O)O (stereo not drawn)
Out: 5.51

In: Sample Oc1ccc(O)c(/C(=N/Nc2ccccc2)c2ccccc2)c1 — what was its hERG current change (%, negative = inhibition) at 10uM?
Out: 11

In: State the recorded hERG current change (%, negative = inhibition) at 10uM for this entry: CCc1cccc2c1Sc1ccccc1CC2N1CCNCC1.CS(=O)(=O)O (stereo not drawn)
Out: -31.1

In: I would be grateful if you could share the reported hERG current change (%, negative = inhibition) at 10uM for CN1CCN(C2Cc3ccc(F)cc3Sc3cc(F)c(Cl)cc32)CC1.CS(=O)(=O)O.O (stereo not drawn) .
Out: -77.3
